- experiment-notes: PP-LFER solute descriptor determination from GC retention and partition coefficient data
- Assay type: physicochemical
- conditions-used: final adjusted value; shared within a PFAS group
Solute descriptor S (dipolarity/polarizability parameter) less than 0.3 is label 1; Solute descriptor S (dipolarity/polarizability parameter) greater than or equal to 0.3 is label 0.

# example entries with known answers
{"columns": ["molecule", "qualitative-label"],
 "data": [
  ["OCCCCC(F)(F)C(F)(F)C(F)(F)C(F)(F)F", "label 0"],
  ["O=S(=O)(F)C(F)(F)C(F)(F)C(F)(F)C(F)(F)F [PFBSF, Perfluorobutanesulfonyl fluoride]", "label 1"],
  ["CN(CCO)S(=O)(=O)C(F)(F)C(F)(F)C(F)(F)C(F)(F)F", "label 0"],
  ["CCN(CCO)S(=O)(=O)C(F)(F)C(F)(F)C(F)(F)C(F)(F)C(F)(F)C(F)(F)C(F)(F)C(F)(F)F", "label 0"],
  ["CN(CCO)S(=O)(=O)C(F)(F)C(F)(F)C(F)(F)C(F)(F)C(F)(F)C(F)(F)C(F)(F)C(F)(F)F", "label 0"],
  ["FC(OC(F)(F)C(F)(OC(F)(F)C(F)(OC(F)(F)C(F)(OC(F)(F)C(F)(OC(F)(F)C(F)(F)C(F)(F)F)C(F)(F)F)C(F)(F)F)C(F)(F)F)C(F)(F)F)C(F)(F)F (stereo not shown)", "label 1"],
  ["C=C(C)C(=O)OCCC(F)(F)C(F)(F)C(F)(F)C(F)(F)C(F)(F)C(F)(F)C(F)(F)C(F)(F)F [8:2 FTMAC, 1H,1H,2H,2H-Perfluorodecyl methacrylate]", "label 0"],
  ["FC(F)(F)C(F)(F)C(F)(F)C(F)(F)CCI [4:2 FTI, 1H,1H,2H,2H-Perfluorohexyl iodide]", "label 0"],
  ["CNS(=O)(=O)C(F)(F)C(F)(F)C(F)(F)C(F)(F)C(F)(F)C(F)(F)C(F)(F)C(F)(F)F [MeFOSA, N-Methylperfluorooctanesulfonamide]", "label 0"],
  ["CCNS(=O)(=O)C(F)(F)C(F)(F)C(F)(F)C(F)(F)C(F)(F)C(F)(F)F [EtFHxSA, N-Ethylperfluorohexanesulfonamide]", "label 0"]
]}

Exam item: Could you please tell me whether Solute descriptor S (dipolarity/polarizability parameter) recorded for FC(F)(F)C(F)(F)C(F)(F)C(F)(F)I [PFBI, Perfluorobutyl iodide] is less than 0.3?
Marked response: label 1

Exam item: Could you please tell me whether Solute descriptor S (dipolarity/polarizability parameter) recorded for "OCCCC(F)(F)C(F)(F)C(F)(F)F" is less than 0.3?
Marked response: label 0

Exam item: Could you please tell me whether Solute descriptor S (dipolarity/polarizability parameter) recorded for CC(=O)OCCC(F)(F)C(F)(F)C(F)(F)C(F)(F)C(F)(F)C(F)(F)C(F)(F)C(F)(F)F [8:2 FTAce, 1H,1H,2H,2H-Perfluorodecyl acetate] is less than 0.3?
Marked response: label 0

Exam item: Could you please tell me whether Solute descriptor S (dipolarity/polarizability parameter) recorded for "C=C(C)C(=O)OCCC(F)(F)C(F)(F)C(F)(F)C(F)(F)C(F)(F)C(F)(F)C(F)(F)C(F)(F)C(F)(F)C(F)(F)F" is less than 0.3?
Marked response: label 0

Exam item: Could you please tell me whether Solute descriptor S (dipolarity/polarizability parameter) recorded for C=C(C)C(=O)OCCC(F)(F)C(F)(F)C(F)(F)C(F)(F)C(F)(F)C(F)(F)F [6:2 FTMAC, 1H,1H,2H,2H-Perfluorooctyl methacrylate] is less than 0.3?
Marked response: label 0

Exam item: Could you please tell me whether Solute descriptor S (dipolarity/polarizability parameter) recorded for "C=CC(F)(F)C(F)(F)C(F)(F)C(F)(F)C(F)(F)C(F)(F)C(F)(F)C(F)(F)F" is less than 0.3?
Marked response: label 1

Exam item: Could you please tell me whether Solute descriptor S (dipolarity/polarizability parameter) recorded for C=CC(=O)OCCC(F)(F)C(F)(F)C(F)(F)C(F)(F)C(F)(F)C(F)(F)C(F)(F)C(F)(F)C(F)(F)C(F)(F)F [10:2 FTAC, 1H,1H,2H,2H-Perfluorododecyl acrylate] is less than 0.3?
Marked response: label 0

Exam item: Could you please tell me whether Solute descriptor S (dipolarity/polarizability parameter) recorded for "OCCC(F)(F)C(F)(F)C(F)(F)C(F)(F)C(F)(F)C(F)(F)C(F)(F)C(F)(F)C(F)(F)C(F)(F)C(F)(F)C(F)(F)F" is less than 0.3?
Marked response: label 0

Exam item: Could you please tell me whether Solute descriptor S (dipolarity/polarizability parameter) recorded for C=CC(=O)OCCC(F)(F)C(F)(F)C(F)(F)C(F)(F)C(F)(F)C(F)(F)F [6:2 FTAC, 1H,1H,2H,2H-Perfluorooctyl acrylate] is less than 0.3?
Marked response: label 0

Exam item: Could you please tell me whether Solute descriptor S (dipolarity/polarizability parameter) recorded for "FC(F)(F)C(F)(F)C(F)(F)N(C(F)(F)C(F)(F)C(F)(F)F)C(F)(F)C(F)(F)C(F)(F)F" is less than 0.3?
Marked response: label 1

Exam item: Could you please tell me whether Solute descriptor S (dipolarity/polarizability parameter) recorded for "FC(F)(F)C(F)(F)C(F)(F)C(F)(F)N(C(F)(F)C(F)(F)C(F)(F)C(F)(F)F)C(F)(F)C(F)(F)C(F)(F)C(F)(F)F" is less than 0.3?
Marked response: label 1

Reference source for all entries: paper PMC10653080
